target: GAL4 DBD (1-147)-CfEcR(DEF)/VP16AD-βRXREF-LmUSPEF (Choristoneura fumiferana, UniProt O77240); experiment: cell-based; settings: 33 uM ligand; RLU ligand treated / RLU DMSO treated cells; average of two wells
# Fold Induction, 27-63 Assay, 33 uM annotations
Give the figure by itself; no unit, no explanation.

Consider the worked cases shown below.
CCc1c(OC)cccc1C(=O)NN(C(=O)c1ccc(Cl)cc1[N+](=O)[O-])C(C)(C)C :: 815
CCc1ccc(C(=O)NN(C(=O)c2cccnc2OC)C(c2ccccc2)C(C)(C)C)cc1 (stereo not shown) :: 1156
CCc1ccc(C(=O)NN(C(=O)c2cc(C)cc(Cl)c2)C(C)(C)C)cc1 :: 1359
CCCC(N(NC(=O)c1cccc(OC)c1C)C(=O)c1cc(OC)c(C)c(OC)c1)C(C)(C)C (stereo not shown) :: 948
COc1cccc(C(=O)NN(C(=O)c2cc(Cl)nnc2Cl)C(C)(C)C)c1C :: 593
Cc1c(C(=O)NN(C(=O)c2cccc(F)c2)C(C)(C)C)ccc2c1CCCO2 :: 906
COc1cccc(C(=O)NN(C(=O)c2cc(C)cc(C)c2)C(C)(C)C)c1N :: 1407
CCc1ccc(C(=O)NN(C(=O)c2cc(C)cc(C)c2)C(CC)C(C)(C)C)cc1 (stereo not shown) :: 823

Prompt line: Entry Cc1c(C(=O)NN(C(=O)c2ccc(F)c(F)c2)C(C)(C)C)ccc2c1CCCO2 has what Fold Induction, 27-63 Assay, 33 uM?
Response line: 1867

Prompt line: Entry COc1cccc(C(=O)NN(C(=O)c2cc(C)cc(Br)c2)C(C)(C)C)c1C has what Fold Induction, 27-63 Assay, 33 uM?
Response line: 3835
